- System: Plasmodium berghei
- Method Description: Screen against P. berghei liver stage (PbLuc), transformed with Luciferase, at 10uM
- Format: functional, HepG2
- Assay Setup: tested at 10 uM
Among all 69,000 compounds or so, about 8,600 (12%) showed an effect of 50% or more. The list comes from a sample in which strong results are over-represented; it also holds close analogues and randomly drawn compounds.
Listing of entries alongside the reported INHIBITION.
Output spec: scalar in %, unitless text.

Completed entries (count: 4):
- Compound: "CC/C=C(/C)C(=O)N1CCN(C2=NCC(C)S2)CC1 (stereo not given)"
  Observed: 30.3
- Compound: "Cc1cc2n(n1)CC(CNC1CCN(Cc3ccccn3)CC1)CN2 (stereo not given)"
  Observed: 50.2
- Compound: "Cc1cc2n(n1)CC(CNC1CCN(Cc3ccncc3)CC1)CN2 (stereo not given)"
  Observed: 16.1
- Compound: "CCC(C)(C)C(=O)N1CCN(C2=NCC(C)S2)CC1 (stereo not given)"
  Observed: -87.7

For the compound Cc1cc(N2CCCC(O)(CN(C)C)C2)c2cc3c(cc2n1)OCO3 (stereo not given) , give its measured INHIBITION value.
11.6
